Source: ChEMBL document CHEMBL4680237

MEASURED TARGET: Human immunodeficiency virus type 1 reverse transcriptase (Human immunodeficiency virus 1) (UniProt Q72547)
ASSAY EXPLANATION: Inhibition of HIV-1 reverse transcriptase assessed as reduction in biotin-dUTP incorporation in to cDNA chain at 0.267 uM in presence of DIG-dUTP, biotin-dUTP and dTTP measured after 1 hr by ELISA relative to control
Parameter threshold = 70%. Response is condition met when inhibition meets or exceeds it, else condition not met.

INSERT INTO results (smiles_str, group_label) VALUES
  ('Cc1ccc(Cn2cc(CN3CCC(Nc4nc(Oc5c(C)cc(C#N)cc5C)c5sccc5n4)CC3)nn2)cc1', 'condition not met'),
  ('Cc1cc(C#N)cc(C)c1Oc1nc(NCCc2cn(Cc3ccccc3[N+](=O)[O-])nn2)nc2ccsc12', 'condition met'),
  ('Cc1ccccc1Cn1cc(CN2CCC(Nc3nc(Oc4c(C)cc(C#N)cc4C)c4sccc4n3)CC2)nn1', 'condition not met'),
  ('Cc1cc(C#N)cc(C)c1Oc1nc(NC2CCN(Cc3cn(Cc4ccccc4[N+](=O)[O-])nn3)CC2)nc2ccsc12', 'condition not met'),
  ('Cc1cc(C#N)cc(C)c1Oc1nc(NC2CCN(Cc3cn(Cc4ccc(C(N)=O)cc4)nn3)CC2)nc2ccsc12', 'condition not met'),
  ('Cc1cc(C#N)cc(C)c1Oc1nc(NC2CCN(Cc3cn(Cc4ccc(S(N)(=O)=O)cc4)nn3)CC2)nc2ccsc12', 'condition not met'),
  ('Cc1cc(C#N)cc(C)c1Oc1nc(NCCc2cn(CC(=O)N3CCOCC3)nn2)nc2ccsc12', 'condition met'),
  ('Cc1cc(-c2cn(CCc3ccsc3)nn2)cc(C)c1Oc1nc(NC2CCN(Cc3ccc(S(N)(=O)=O)cc3)CC2)nc2ccsc12', 'condition met'),
  ('Cc1cc(C#N)cc(C)c1Oc1nc(NC2CCN(Cc3cn(Cc4ccccc4C#N)nn3)CC2)nc2ccsc12', 'condition not met'),
  ('Cc1cc(C#N)cc(C)c1Oc1nc(NCCc2cn(Cc3ccccc3Cl)nn2)nc2ccsc12', 'condition met'),
  ('Cc1cc(-c2cn(CC(=O)N3CCCC3)nn2)cc(C)c1Oc1nc(NC2CCN(Cc3ccc(S(N)(=O)=O)cc3)CC2)nc2ccsc12', 'condition met'),
  ('Cc1cc(C#N)cc(C)c1Oc1nc(NC2CCN(Cc3cn([C@H]4C[C@H](n5cc(C)c(=O)[nH]c5=O)O[C@@H]4CO)nn3)CC2)nc2ccsc12', 'condition not met');

---

ASSAY EXPLANATION: Cytotoxicity against human MT4 cells assessed as reduction in cell viability after 5 days by MTT assay
Type: cell-based
STUDY CONDITIONS: time 5 day
Lab note: cut-off is 20 µM. Strictly less in CC50 at 120 h is 1. Exactly 20 µM or more is 0.

INSERT INTO assay_data (smiles_str, group_label) VALUES
  ('Cc1cc(C#N)cc(C)c1Oc1nc(NC2CCN(Cc3cn(Cc4ccc(S(N)(=O)=O)cc4)nn3)CC2)nc2ccsc12', 0),
  ('Cc1ccc(Cn2cc(CN3CCC(Nc4nc(Oc5c(C)cc(C#N)cc5C)c5sccc5n4)CC3)nn2)cc1', 1),
  ('Cc1cc(C#N)cc(C)c1Oc1nc(NC2CCN(Cc3cn(Cc4ccccc4C#N)nn3)CC2)nc2ccsc12', 1),
  ('Cc1cc(-c2cn(Cc3ccc(Cl)cc3)nn2)cc(C)c1Oc1nc(NC2CCN(Cc3ccc(S(N)(=O)=O)cc3)CC2)nc2ccsc12', 1),
  ('Cc1cc(C#N)cc(C)c1Oc1nc(NC2CCN(Cc3cn(Cc4ccc(C#N)cc4)nn3)CC2)nc2ccsc12', 0),
  ('Cc1cc(-c2cn(CC(=O)N3CCCC3)nn2)cc(C)c1Oc1nc(NC2CCN(Cc3ccc(S(N)(=O)=O)cc3)CC2)nc2ccsc12', 1),
  ('Cc1cc(C#N)cc(C)c1Oc1nc(NC2CCN(Cc3cn([C@H]4C[C@H](n5cc(C)c(=O)[nH]c5=O)O[C@@H]4CO)nn3)CC2)nc2ccsc12', 0);
